molecular target: Lm CdaA (∆100CdaA) (Listeria monocytogenes, UniProt Q8Y5E4); construct: DAC domain, lacks transmembrane domain and linker (first 100 residues deleted); N-terminal GST tag cut with PreScission protease; plasmid pGEXpBP33, E. coli BL21(DE3); residues to at least 268 mentioned (96-104 and 256-268 disordered); non-catalytic back-to-back dimer in crystal; assay: ITC, […] binding model
Sequence (Q8Y5E4 101-273): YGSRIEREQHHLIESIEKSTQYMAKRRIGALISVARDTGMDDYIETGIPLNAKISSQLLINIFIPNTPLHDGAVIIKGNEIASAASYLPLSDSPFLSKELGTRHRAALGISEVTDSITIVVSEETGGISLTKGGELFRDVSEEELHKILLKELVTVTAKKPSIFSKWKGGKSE
EXPERIMENTAL READOUT: Kd (µM)
A number alone suffices; assume µM.

Entry CC(=O)Nc1nc(C)c(-c2csc(N)n2)s1 [compound 7] needs its Kd filled in; supply it.
16.3
